procedure.details: Concentration required for 50% inhibition of thrombin induced platelet aggregation
Format: functional
measurement.kind: IC50 (nM)
// units = nM; emit number, no label

Consider the compound `C[C@@H]1CCN(C(=O)[C@H](CCCNC(=N)N)NS(=O)(=O)c2cccc3c2NC[C@H](C)C3)[C@@H](C(=O)O)C1` and give its recorded IC50. 9
